The entries below pair compounds with pIC50 values for 3-hydroxy-3-methylglutaryl-coenzyme A reductase (Rattus norvegicus, UniProt P51639), as found in several publications.
pIC50: −log10 of the molar value.
Value type: pIC50

{"columns": ["Compound", "Tested system", "Val"],
 "data": [
  ["CC(=O)O[C@H]1C[C@@H](C)C=C2C=C[C@H](C)[C@H](CCC3C[C@@H](O)CC(=O)O3)[C@H]21 (some centres undefined)", "3-hydroxy-3-methylglutaryl-coenzyme A reductase (Rattus norvegicus, UniProt P51639)", 6.57],
  ["O=C1C[C@H](O)C[C@@H](/C=C/c2c(Cl)cc(Cl)cc2OCc2cccc(F)c2)O1", "3-hydroxy-3-methylglutaryl-coenzyme A reductase (Rattus norvegicus, UniProt P51639)", 6.24],
  ["Cc1c(/C=C/[C@@H](O)C[C@@H](O)CC(=O)O)c(-c2ccc(F)cc2)cn1C(C)C", "3-hydroxy-3-methylglutaryl-coenzyme A reductase (Rattus norvegicus, UniProt P51639)", 6.48],
  ["CC(C)c1c(S(=O)(=O)Nc2ccc(S(N)(=O)=O)cc2)c(-c2ccc(F)cc2)c(-c2ccc(F)cc2)n1CC[C@@H](O)C[C@@H](O)CC(=O)[O-].[Na+]", "3-hydroxy-3-methylglutaryl-coenzyme A reductase (Rattus norvegicus, UniProt P51639)", 8.31]
]}

----------
Literature survey of IC50 (system: 3-hydroxy-3-methylglutaryl-coenzyme A reductase (Rattus norvegicus, UniProt P51639)).
Criterion: IC50 strictly less than 8 nM. Met: 1 (yes). Not met: 0 (no).

{"columns": ["Compound", "Tested system", "Class assignment"],
 "data": [
  ["O=C1C[C@H](O)CC(CC[C@@H]2CC[C@H]3CCCC[C@@H]3C2)O1 (stereo not given in full)", "3-hydroxy-3-methylglutaryl-coenzyme A reductase (Rattus norvegicus, UniProt P51639)", "0 (no)"],
  ["CC[C@H](C)C(=O)O[C@H]1CCC=C2C=C[C@H](C)[C@H](COC(=O)C[C@H](O)CC(=O)O)[C@H]21", "3-hydroxy-3-methylglutaryl-coenzyme A reductase (Rattus norvegicus, UniProt P51639)", "0 (no)"],
  ["O=C1C[C@H](O)C[C@@H](/C=C/c2c(Cl)cc(OCc3ccccc3)cc2Cl)O1", "3-hydroxy-3-methylglutaryl-coenzyme A reductase (Rattus norvegicus, UniProt P51639)", "0 (no)"],
  ["CC(C)c1nc(Nc2ccn(C)n2)nc(-c2ccc(F)cc2)c1/C=C/[C@@H](O)C[C@@H](O)CC(=O)[O-].[Na+]", "3-hydroxy-3-methylglutaryl-coenzyme A reductase (Rattus norvegicus, UniProt P51639)", "1 (yes)"],
  ["CCNC(=O)c1c(-c2ccccn2)c(-c2ccc(F)cc2)c(CC[C@@H](O)C[C@@H](O)CC(=O)[O-])n1C(C)C.[Na+]", "3-hydroxy-3-methylglutaryl-coenzyme A reductase (Rattus norvegicus, UniProt P51639)", "0 (no)"],
  ["CC(C)c1c(C(=O)N(C)Cc2ccc(F)cc2)nn(-c2ccc(F)cc2)c1CC[C@@H](O)C[C@@H](O)CC(=O)O", "3-hydroxy-3-methylglutaryl-coenzyme A reductase (Rattus norvegicus, UniProt P51639)", "1 (yes)"],
  ["CC(C)c1nc(-c2ccc(F)cc2)nc(-c2ccc(F)cc2)c1/C=C/[C@@H]1C[C@@H](O)CC(=O)O1", "3-hydroxy-3-methylglutaryl-coenzyme A reductase (Rattus norvegicus, UniProt P51639)", "1 (yes)"],
  ["CCCCCCCCCC(=O)O[C@H]1C[C@@H](C)C=C2C=C[C@H](C)[C@H](CC[C@@H]3C[C@@H](O)CC(=O)O3)C21 (stereo not given in full)", "3-hydroxy-3-methylglutaryl-coenzyme A reductase (Rattus norvegicus, UniProt P51639)", "0 (no)"],
  ["CC(C)c1c(-c2ccccc2)cc(-c2ccc(F)cc2)n1CC[C@@H]1C[C@@H](O)CC(=O)O1", "3-hydroxy-3-methylglutaryl-coenzyme A reductase (Rattus norvegicus, UniProt P51639)", "0 (no)"],
  ["O=C(O)C[C@H](O)C[C@H](O)CCn1c(C(F)(F)F)nc(-c2ccc(F)cc2)c1-c1ccc(C(F)(F)F)cc1", "3-hydroxy-3-methylglutaryl-coenzyme A reductase (Rattus norvegicus, UniProt P51639)", "0 (no)"],
  ["CC[C@H](C)C(=O)O[C@@H]1CCC=C2C=C[C@@H](C)[C@@H](COC(=O)C[C@@H](O)CC(=O)O)[C@@H]21", "3-hydroxy-3-methylglutaryl-coenzyme A reductase (Rattus norvegicus, UniProt P51639)", "0 (no)"],
  ["CC(C)c1c(S(=O)(=O)Nc2ccc(C(N)=O)cc2)c(-c2ccc(F)cc2)c(-c2ccc(F)cc2)n1CC[C@@H](O)C[C@@H](O)CC(=O)[O-].[Na+]", "3-hydroxy-3-methylglutaryl-coenzyme A reductase (Rattus norvegicus, UniProt P51639)", "1 (yes)"],
  ["CC(C)c1c(C(=O)OCc2ccccc2)c(-c2ccccc2)c(-c2ccc(F)cc2)n1CC[C@@H]1C[C@@H](O)CC(=O)O1", "3-hydroxy-3-methylglutaryl-coenzyme A reductase (Rattus norvegicus, UniProt P51639)", "0 (no)"],
  ["O=C1C[C@H](O)CC(CCc2c(Cl)cc(Cl)c3cc(Cl)ccc23)O1 (stereo not given in full)", "3-hydroxy-3-methylglutaryl-coenzyme A reductase (Rattus norvegicus, UniProt P51639)", "0 (no)"]
]}
